Reference for the values: paper PMC11444265

System: Acinetobacter spp.
Assay: MIC in low iron media, 198-member panel of Acinetobacter spp. clinical isolates
Format: cell-based
Conditions: Acinetobacter
// MIC90 lookup, one value per entry

Worked cases, answers included:
{"columns": ["MOLECULE", "MIC90"],
 "data": [
  ["C[C@@H](O)[C@H]1C(=O)N2C(C(=O)O)=C(S[C@@H]3CN[C@H](C(=O)N(C)C)C3)[C@H](C)[C@H]12 [Meropenem (5), meropenem, reference compound]", "> 64 µg/mL"],
  ["CC(C)(O/N=C(\\C(=O)N[C@H]1CN2CC(C(=O)NCCN3C(=O)c4cc(O)c(O)cc4C3=O)=C(C(=O)O)N2C1=O)c1nc(N)sc1Cl)C(=O)O", "> 16 µg/mL"],
  ["C[C@H]1[C@H](NC(=O)/C(=N\\OC(C)(C)C(=O)O)c2csc(N)n2)C(=O)N1S(=O)(=O)O", "> 32 µg/mL"]
]}

// next item, MIC90 requested
Exercise: Give reported MIC90 value for CC(C)(O/N=C(\C(=O)N[C@@H]1C(=O)N2C(C(=O)[O-])=C(C[n+]3ccccc3)CS[C@H]12)c1csc(N)n1)C(=O)O
Solution: > 64 µg/mL
